system: DU-4475; assay: normalised response (% of control), CellTox Green; higher = less cell death (100 = DMSO, 0 = benzethonium chloride kill control); conditions: incubation time: 72 h
Would you mind telling me the reported normalised response of each entry?
Answers are plain numbers, in %.

Consider the following items and state reported normalised response for each.
1. COc1cccc2c1C(=O)c1c(O)c3c(c(O)c1C2=O)C[C@@](O)(C(=O)CO)C[C@@H]3O[C@H]1C[C@H](N)[C@H](O)[C@H](C)O1 [Doxorubicin] (10 nM)
2. Clc1ccc(C(c2ccccc2Cl)C(Cl)Cl)cc1 (configuration not stated) [Mitotane] (10000 nM)
3. COc1cc(Nc2ncc3c(n2)-c2ccc(Cl)cc2C(c2c(F)cccc2OC)=NC3)ccc1C(=O)O [Alisertib] (10000 nM)
4. CC(=O)O[C@]1(C(C)=O)CC[C@H]2[C@@H]3C=C(C)C4=CC(=O)CC[C@]4(C)[C@H]3CC[C@@]21C [Megestrol acetate] (1000 nM)
5. Cc1c2oc3c(C)ccc(C(=O)N[C@@H]4C(=O)N[C@H](C(C)C)C(=O)N5CCC[C@H]5C(=O)N(C)CC(=O)N(C)[C@@H](C(C)C)C(=O)O[C@@H]4C)c3nc-2c(C(=O)N[C@@H]2C(=O)N[C@H](C(C)C)C(=O)N3CCC[C@H]3C(=O)N(C)CC(=O)N(C)[C@@H](C(C)C)C(=O)O[C@@H]2C)c(N)c1=O [Dactinomycin] (100 nM)
6. C[C@]1(c2nc3c(C(N)=O)cccc3[nH]2)CCCN1 [Veliparib] (100 nM)

A:
[101, 97.7, 94, 99.1, 81.8, 102]

Consider the following items and state reported normalised response for each.
1. Cc1ccc(F)c(NC(=O)Nc2ccc(-c3cccc4[nH]nc(N)c34)cc2)c1 [Linifanib] (10 nM)
2. Cc1c2oc3c(C)ccc(C(=O)N[C@@H]4C(=O)N[C@H](C(C)C)C(=O)N5CCC[C@H]5C(=O)N(C)CC(=O)N(C)[C@@H](C(C)C)C(=O)O[C@@H]4C)c3nc-2c(C(=O)N[C@@H]2C(=O)N[C@H](C(C)C)C(=O)N3CCC[C@H]3C(=O)N(C)CC(=O)N(C)[C@@H](C(C)C)C(=O)O[C@@H]2C)c(N)c1=O [Dactinomycin] (10 nM)
3. C=CCNC1=C2C[C@@H](C)C[C@H](OC)[C@H](O)[C@@H](C)/C=C(\C)[C@H](OC(N)=O)[C@@H](OC)/C=C\C=C(/C)C(=O)NC(=CC1=O)C2=O [Tanespimycin] (100 nM)
4. CS(=O)(=O)c1ccc(C(=O)Nc2ccc(Cl)c(-c3ccccn3)c2)c(Cl)c1 [Vismodegib] (1000 nM)
5. COc1cccc2c1C(=O)c1c(O)c3c(c(O)c1C2=O)C[C@@](O)(C(=O)CO)C[C@@H]3O[C@H]1C[C@H](N)[C@H](O)[C@H](C)O1 [Doxorubicin] (1000 nM)

A:
[102, 74.7, 93.8, 99, 111]

Q: Record lookup: for DU-4475, what normalised response belongs to CN(C)C/C=C/C(=O)Nc1cc2c(Nc3ccc(F)c(Cl)c3)ncnc2cc1O[C@H]1CCOC1 [Afatinib] (10 nM) ?
A: 97.6

###

system: Hs578T; test: normalised viability (% of control), CellTiter-Blue; higher = more viable cells (about 100 = DMSO control); details: 1000 nM; incubation time: 72 h
endpoint label: normalised viability (%)
Answers are plain numbers, in %.

Below, 3 molecules whose answers are already recorded.
Q: # normalised viability lookup, item Cc1ccc(F)c(NC(=O)Nc2ccc(-c3cccc4[nH]nc(N)c34)cc2)c1 [Linifanib]
A: 91.3

Q: Continue with COc1cc(Nc2ncc3c(n2)-c2ccc(Cl)cc2C(c2c(F)cccc2OC)=NC3)ccc1C(=O)O [MLN8237]
A: 59.2

Q: Continue with Cc1c2oc3c(C)ccc(C(=O)N[C@@H]4C(=O)N[C@H](C(C)C)C(=O)N5CCC[C@H]5C(=O)N(C)CC(=O)N(C)[C@@H](C(C)C)C(=O)O[C@@H]4C)c3nc-2c(C(=O)N[C@@H]2C(=O)N[C@H](C(C)C)C(=O)N3CCC[C@H]3C(=O)N(C)CC(=O)N(C)[C@@H](C(C)C)C(=O)O[C@@H]2C)c(N)c1=O [Dactinomycin]
A: 1.67

***
Q: # normalised viability lookup, item N#CC[C@H](C1CCCC1)n1cc(-c2ncnc3[nH]ccc23)cn1 [Ruxolitinib]
A: 104
